test: Volume of distribution at steady state in Sprague-Dawley rat at 3 mg/kg, iv by LC-MS/MS analysis
Format: ADME, organism-based
conditions: in vivo, read-out: Vdss
readout type: Vd

What does the record list as Vd for Cc1cc(Nc2nc(NCc3ccc(F)cc3F)nc3c2cnn3C2CCOCC2)n[nH]1 ?
3.02 L/kg

* * *

test: AUClast in Sprague-Dawley rat at 10 mg/kg, po by LC-MS/MS analysis
Type: ADME, organism-based
Set-up: time 0 - last, dose 10 mg/kg, route po
conditions: in vivo
readout type: AUC(0-t)

What does the record list as AUC(0-t) for Cc1cc(Nc2nc(NCc3ccc(F)cc3F)nc3c2cnn3C2CCOCC2)n[nH]1 ?
286 ng·h/mL

* * *

test: Clearance in Sprague-Dawley rat at 3 mg/kg, iv by LC-MS/MS analysis
Format: ADME, organism-based
conditions: in vivo
readout type: clearance (mL/min/kg)
Numbers only, in mL/min/kg.

What does the record list as clearance for Cc1cc(Nc2nc(NCc3ccc(F)cc3F)nc3c2cnn3C2CCOCC2)n[nH]1 ?
47.2

* * *

system name: CYP2D6 (Homo sapiens)
Sequence (P10635 whole entry): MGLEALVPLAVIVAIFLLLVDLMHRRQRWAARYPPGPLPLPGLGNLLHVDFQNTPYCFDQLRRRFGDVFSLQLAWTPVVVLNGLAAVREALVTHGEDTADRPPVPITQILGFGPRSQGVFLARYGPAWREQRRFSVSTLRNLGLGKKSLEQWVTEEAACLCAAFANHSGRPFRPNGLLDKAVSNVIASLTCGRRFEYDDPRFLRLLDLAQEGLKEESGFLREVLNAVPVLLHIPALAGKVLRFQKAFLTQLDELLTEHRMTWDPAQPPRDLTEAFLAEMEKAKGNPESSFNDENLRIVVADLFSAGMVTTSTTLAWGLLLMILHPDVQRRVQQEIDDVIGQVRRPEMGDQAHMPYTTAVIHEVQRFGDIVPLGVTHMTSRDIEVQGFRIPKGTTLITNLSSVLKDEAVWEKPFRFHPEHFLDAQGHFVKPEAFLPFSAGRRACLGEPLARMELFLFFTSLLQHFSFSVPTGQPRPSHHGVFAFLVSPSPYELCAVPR
test: Inhibition of CYP2D6 in human liver microsomes at 10 uM preincubated for 10 mins followed by addition of NADPH-regenerating system and measured after 15 mins by LC-MS/MS analysis relative to control
Assay type: ADME, Microsome
conditions: time 25 min
readout type: inhibition at 0.25 h, 10 µM (%)
Give bare numbers, in %.

Cc1cc(Nc2nc(NCc3ccc(F)cc3F)nc3c2cnn3C2CCOCC2)n[nH]1 : 13.4

What does the record list as inhibition at 0.25 h, 10 µM for C=C[C@H]1C[N@@]2CC[C@H]1C[C@@H]2[C@@H](O)c1ccnc2ccc(OC)cc12 [QUINIDINE] ?
95.9

* * *

system name: Serine/threonine-protein kinase PLK4 (Homo sapiens, UniProt O00444)
Sequence (O00444 whole entry): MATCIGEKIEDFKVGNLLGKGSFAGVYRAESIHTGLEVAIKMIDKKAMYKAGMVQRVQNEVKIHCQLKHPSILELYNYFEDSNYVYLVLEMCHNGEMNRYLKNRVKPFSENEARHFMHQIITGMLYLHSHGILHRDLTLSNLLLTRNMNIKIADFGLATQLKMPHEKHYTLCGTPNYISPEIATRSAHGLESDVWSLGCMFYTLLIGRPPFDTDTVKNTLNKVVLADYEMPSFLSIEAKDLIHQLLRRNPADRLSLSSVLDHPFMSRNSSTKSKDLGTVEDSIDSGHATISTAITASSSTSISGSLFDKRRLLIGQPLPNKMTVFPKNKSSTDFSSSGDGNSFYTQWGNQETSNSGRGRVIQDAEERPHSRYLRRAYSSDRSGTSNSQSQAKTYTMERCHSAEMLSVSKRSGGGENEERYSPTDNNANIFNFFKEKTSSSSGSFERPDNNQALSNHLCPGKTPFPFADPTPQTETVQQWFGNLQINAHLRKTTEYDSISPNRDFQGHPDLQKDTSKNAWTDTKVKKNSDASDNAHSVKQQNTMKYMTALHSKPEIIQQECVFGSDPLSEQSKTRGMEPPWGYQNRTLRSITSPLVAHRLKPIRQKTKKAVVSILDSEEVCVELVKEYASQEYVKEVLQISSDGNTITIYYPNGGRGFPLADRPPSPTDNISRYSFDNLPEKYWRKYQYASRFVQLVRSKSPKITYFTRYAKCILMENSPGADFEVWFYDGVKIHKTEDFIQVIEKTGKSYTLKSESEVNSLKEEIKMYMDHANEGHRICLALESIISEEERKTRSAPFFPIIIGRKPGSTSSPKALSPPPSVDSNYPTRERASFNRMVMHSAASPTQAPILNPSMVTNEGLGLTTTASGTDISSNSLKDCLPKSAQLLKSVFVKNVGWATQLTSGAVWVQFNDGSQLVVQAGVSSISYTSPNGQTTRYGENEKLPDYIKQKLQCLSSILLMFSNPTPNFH
test: Inhibition of PLK4 (unknown origin)
readout type: IC50 (nM)
Answers are plain numbers, in nM.

What does the record list as IC50 for Cc1cc(Nc2cc(Cc3ccccc3)nc(NC3CCNCC3)n2)n[nH]1 ?
351

* * *

system name: Serine/threonine-protein kinase PAK 4 (Homo sapiens)
Sequence (O96013 whole entry): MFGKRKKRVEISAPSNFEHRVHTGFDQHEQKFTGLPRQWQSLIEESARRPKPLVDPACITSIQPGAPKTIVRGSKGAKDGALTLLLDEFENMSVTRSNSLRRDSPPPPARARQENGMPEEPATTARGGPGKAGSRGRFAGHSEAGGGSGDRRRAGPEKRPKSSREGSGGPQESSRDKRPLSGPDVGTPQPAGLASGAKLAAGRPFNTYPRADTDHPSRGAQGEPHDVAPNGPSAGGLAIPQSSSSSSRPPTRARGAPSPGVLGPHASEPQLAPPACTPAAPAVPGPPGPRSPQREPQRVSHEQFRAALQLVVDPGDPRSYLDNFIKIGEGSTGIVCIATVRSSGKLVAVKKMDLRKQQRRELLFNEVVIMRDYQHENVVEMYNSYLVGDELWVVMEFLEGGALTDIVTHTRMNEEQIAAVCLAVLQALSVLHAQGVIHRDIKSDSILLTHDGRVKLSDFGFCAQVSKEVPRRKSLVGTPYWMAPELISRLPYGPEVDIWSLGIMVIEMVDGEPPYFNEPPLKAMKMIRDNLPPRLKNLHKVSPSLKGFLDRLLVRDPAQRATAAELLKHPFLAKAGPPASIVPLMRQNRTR
test: Inhibition of PAK4 (unknown origin) incubated for 60 mins by time-resolved HTRF assay
readout type: pIC50
Numbers only, as −log10 of the molar value.

Worked examples follow.
Cc1cc(Nc2nc(Nc3ccccc3)nc3[nH]ncc23)n[nH]1 : 5.23
Cc1cc(Nc2nc(NCc3ccc(F)cc3F)nc3c2cnn3CC(C)(C)O)n[nH]1 : 6.18
Cc1cc(Nc2nc(Cl)nc3[nH]ncc23)n[nH]1 : 5.23

Please give pIC50 for each item listed below.
1. Cc1cc(Nc2nc(NCc3cccc(Br)c3)nc3[nH]ncc23)n[nH]1
2. Cc1cc(Nc2nc(NCc3cccc(F)c3)nc3[nH]ncc23)n[nH]1
3. Cc1cc(Nc2nc(NCc3ccc(Br)cc3)nc3[nH]ncc23)n[nH]1

[5.36, 6.34, 5.88]

* * *

system name: CYP2C19 (Homo sapiens)
Sequence (P33261 whole entry): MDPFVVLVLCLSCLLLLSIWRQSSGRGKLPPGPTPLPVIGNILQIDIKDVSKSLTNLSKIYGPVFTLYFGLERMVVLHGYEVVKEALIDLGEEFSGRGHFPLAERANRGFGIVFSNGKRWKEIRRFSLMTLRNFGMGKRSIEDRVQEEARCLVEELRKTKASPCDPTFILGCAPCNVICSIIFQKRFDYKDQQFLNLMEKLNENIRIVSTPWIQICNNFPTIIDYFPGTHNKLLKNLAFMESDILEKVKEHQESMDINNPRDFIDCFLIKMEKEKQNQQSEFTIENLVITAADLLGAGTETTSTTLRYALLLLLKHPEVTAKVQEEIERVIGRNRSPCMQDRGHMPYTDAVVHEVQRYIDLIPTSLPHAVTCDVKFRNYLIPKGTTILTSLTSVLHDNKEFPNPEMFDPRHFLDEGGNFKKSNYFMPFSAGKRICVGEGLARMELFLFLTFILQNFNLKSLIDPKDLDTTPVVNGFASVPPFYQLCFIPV
test: Inhibition of CYP2C19 in human liver microsomes at 10 uM preincubated for 10 mins followed by addition of NADPH-regenerating system and measured after 15 mins by LC-MS/MS analysis relative to control
Assay type: ADME, Microsome
conditions: time 25 min
readout type: inhibition at 0.25 h, 10 µM (%)
Numbers only, in %.

What does the record list as inhibition at 0.25 h, 10 µM for Cc1cc(Nc2nc(NCc3ccc(F)cc3F)nc3c2cnn3C2CCOCC2)n[nH]1 ?
32.9
